In this section, each of the compounds is paired with its reported relative viability.
tested on: NCI-H1648; experiment: relative viability (nuclei count vs DMSO), 5 days (fraction); higher = more cells survive; settings: first compound 2.53 µM

Below are worked cases with known answers.
Input line: Specify relative viability for Oc1nc(-c2ccc(C(F)(F)F)cc2)nc2c1CSCC2 [XAV939] + CC(=O)Nc1cccc(-n2c(=O)n(C3CC3)c(=O)c3c(Nc4ccc(I)cc4F)n(C)c(=O)c(C)c32)c1 [Trametinib] (partner 0.02 µM) and stop.
Output line: 0.361

Input line: Specify relative viability for Oc1nc(-c2ccc(C(F)(F)F)cc2)nc2c1CSCC2 [XAV939] + NC(=O)Nc1cc(-c2cccc(F)c2)sc1C(=O)N[C@H]1CCCNC1 [AZD7762] (partner 0.2 µM) and stop.
Output line: 0.598

Input line: Specify relative viability for Oc1nc(-c2ccc(C(F)(F)F)cc2)nc2c1CSCC2 [XAV939] + O=C(CCCCCCC(=O)Nc1ccccc1)NO [Vorinostat] (partner 1 µM) and stop.
Output line: 0.285

Here is the next item to consider.
Input line: Specify relative viability for Oc1nc(-c2ccc(C(F)(F)F)cc2)nc2c1CSCC2 [XAV939] + CC(=O)c1c(C)c2cnc(Nc3ccc(N4CCNCC4)cn3)nc2n(C2CCCC2)c1=O [Palbociclib] (partner 0.5 µM) and stop.
Output line: 0.216

---

In this section, each of the compounds is paired with its reported relative viability.
tested on: NCI-H1793; assay: relative viability (nuclei count vs DMSO), 5 days (fraction); higher = more cells survive; details: first compound 0.08 µM
Enter the number alone.

Input line: Specify relative viability for Oc1nc(-c2ccc(C(F)(F)F)cc2)nc2c1CSCC2 [XAV939] + NC(=O)Nc1cc(-c2cccc(F)c2)sc1C(=O)N[C@H]1CCCNC1 [AZD7762] (partner 0.2 µM) and stop.
Output line: 0.989

Input line: Specify relative viability for C=C1C(=O)O[C@@H](CCCCCCCC)[C@@H]1C(=O)O [C-75] + CS(=O)(=O)N1CCN(Cc2cc3nc(-c4cccc5[nH]ncc45)nc(N4CCOCC4)c3s2)CC1 [Pictilisib] (partner 1 µM) and stop.
Output line: 0.339

---
Input line: Specify relative viability for C=C1C(=O)O[C@@H](CCCCCCCC)[C@@H]1C(=O)O [C-75] + CC1(C)CCC(c2ccc(Cl)cc2)=C(CN2CCN(c3ccc(C(=O)NS(=O)(=O)c4ccc(N[C@H](CCN5CCOCC5)CSc5ccccc5)c(S(=O)(=O)C(F)(F)F)c4)cc3)CC2)C1 [Navitoclax] (partner 0.5 µM) and stop.
Output line: 0.494

---

test system: NCI-H1915; assay: relative viability (nuclei count vs DMSO), 5 days (fraction); higher = more cells survive; details: first compound 2.53 µM
measured metric: relative viability
Enter the number alone.

Input line: Specify relative viability for C=C1C(=O)O[C@@H](CCCCCCCC)[C@@H]1C(=O)O [C-75] + CC(C)C[C@H](NC(=O)[C@H](Cc1ccccc1)NC(=O)c1cnccn1)B(O)O [Bortezomib] (partner 0.002 µM) and stop.
Output line: 0.81

Input line: Specify relative viability for Oc1nc(-c2ccc(C(F)(F)F)cc2)nc2c1CSCC2 [XAV939] + CC(=O)c1c(C)c2cnc(Nc3ccc(N4CCNCC4)cn3)nc2n(C2CCCC2)c1=O [Palbociclib] (partner 0.5 µM) and stop.
Output line: 0.511

Input line: Specify relative viability for Oc1nc(-c2ccc(C(F)(F)F)cc2)nc2c1CSCC2 [XAV939] + Cc1cc(Nc2cc(N3CCN(C)CC3)nc(Sc3ccc(NC(=O)C4CC4)cc3)n2)n[nH]1 [Tozasertib] (partner 0.1 µM) and stop.
Output line: 0.43

---
Input line: Specify relative viability for Oc1nc(-c2ccc(C(F)(F)F)cc2)nc2c1CSCC2 [XAV939] + Cc1nc(Nc2ncc(C(=O)Nc3c(C)cccc3Cl)s2)cc(N2CCN(CCO)CC2)n1 [Dasatinib] (partner 0.075 µM) and stop.
Output line: 0.298

Input line: Specify relative viability for Oc1nc(-c2ccc(C(F)(F)F)cc2)nc2c1CSCC2 [XAV939] + O=C(c1cc(Cc2n[nH]c(=O)c3ccccc23)ccc1F)N1CCN(C(=O)C2CC2)CC1 [Olaparib] (partner 8 µM) and stop.
Output line: 0.275

---

system: NCI-H1734; assay: relative viability (nuclei count vs DMSO), 5 days (fraction); higher = more cells survive; settings: first compound 0.253 µM
Class (by relative viability) -- 0 = under 0.4, 1 = from 0.4 up to 0.6, 2 = 0.6 and over

Answered examples (5):
Input line: Just checking, what class would you give C=C1C(=O)O[C@@H](CCCCCCCC)[C@@H]1C(=O)O [C-75] + CS(=O)(=O)N1CCN(Cc2cc3nc(-c4cccc5[nH]ncc45)nc(N4CCOCC4)c3s2)CC1 [Pictilisib] (partner 1 µM) here?
Output line: 1

Input line: Just checking, what class would you give Oc1nc(-c2ccc(C(F)(F)F)cc2)nc2c1CSCC2 [XAV939] + CC(=O)c1c(C)c2cnc(Nc3ccc(N4CCNCC4)cn3)nc2n(C2CCCC2)c1=O [Palbociclib] (partner 0.5 µM) here?
Output line: 0

Input line: Just checking, what class would you give C=C1C(=O)O[C@@H](CCCCCCCC)[C@@H]1C(=O)O [C-75] + O=C(c1cc(Cc2n[nH]c(=O)c3ccccc23)ccc1F)N1CCN(C(=O)C2CC2)CC1 [Olaparib] (partner 8 µM) here?
Output line: 1

Input line: Just checking, what class would you give Oc1nc(-c2ccc(C(F)(F)F)cc2)nc2c1CSCC2 [XAV939] + Cc1nc(Nc2ncc(C(=O)Nc3c(C)cccc3Cl)s2)cc(N2CCN(CCO)CC2)n1 [Dasatinib] (partner 0.075 µM) here?
Output line: 1

Input line: Just checking, what class would you give Oc1nc(-c2ccc(C(F)(F)F)cc2)nc2c1CSCC2 [XAV939] + CC(C)C[C@H](NC(=O)[C@H](Cc1ccccc1)NC(=O)c1cnccn1)B(O)O [Bortezomib] (partner 0.002 µM) here?
Output line: 2

---
Input line: Just checking, what class would you give C=C1C(=O)O[C@@H](CCCCCCCC)[C@@H]1C(=O)O [C-75] + CC(=O)Nc1cccc(-n2c(=O)n(C3CC3)c(=O)c3c(Nc4ccc(I)cc4F)n(C)c(=O)c(C)c32)c1 [Trametinib] (partner 0.02 µM) here?
Output line: 2

Input line: Just checking, what class would you give Oc1nc(-c2ccc(C(F)(F)F)cc2)nc2c1CSCC2 [XAV939] + Nc1ncn([C@H]2C[C@H](O)[C@@H](CO)O2)c(=O)n1 [Decitabine] (partner 2 µM) here?
Output line: 1

Input line: Just checking, what class would you give C=C1C(=O)O[C@@H](CCCCCCCC)[C@@H]1C(=O)O [C-75] + CC(=O)c1c(C)c2cnc(Nc3ccc(N4CCNCC4)cn3)nc2n(C2CCCC2)c1=O [Palbociclib] (partner 0.5 µM) here?
Output line: 0

Input line: Just checking, what class would you give Oc1nc(-c2ccc(C(F)(F)F)cc2)nc2c1CSCC2 [XAV939] + CS(=O)(=O)N1CCN(Cc2cc3nc(-c4cccc5[nH]ncc45)nc(N4CCOCC4)c3s2)CC1 [Pictilisib] (partner 1 µM) here?
Output line: 1

---

tested on: NCI-H2023; assay: relative viability (nuclei count vs DMSO), 5 days (fraction); higher = more cells survive; conditions: first compound 0.4 µM
In this section, each of the molecules is paired with its reported relative viability.

Below are worked cases with known answers.
Input line: Specify relative viability for O=C(O)c1ccc(-c2c[nH]c3ncc(-c4ccccc4)cc23)cc1C1CCCC1 + Cc1cc(Nc2cc(N3CCN(C)CC3)nc(Sc3ccc(NC(=O)C4CC4)cc3)n2)n[nH]1 [Tozasertib] (partner 0.1 µM) and stop.
Output line: 0.318

Input line: Specify relative viability for O=C(O)c1ccc(-c2c[nH]c3ncc(-c4ccccc4)cc23)cc1C1CCCC1 + O=C(CCCCCCC(=O)Nc1ccccc1)NO [Vorinostat] (partner 1 µM) and stop.
Output line: 0.523

Input line: Specify relative viability for O=C(O)c1ccc(-c2c[nH]c3ncc(-c4ccccc4)cc23)cc1C1CCCC1 + C[C@@H](Oc1cc(-c2cnn(C3CCNCC3)c2)cnc1N)c1c(Cl)ccc(F)c1Cl [Crizotinib] (partner 1 µM) and stop.
Output line: 0.572

Input line: Specify relative viability for O=C(O)c1ccc(-c2c[nH]c3ncc(-c4ccccc4)cc23)cc1C1CCCC1 + O=C(c1cc(Cc2n[nH]c(=O)c3ccccc23)ccc1F)N1CCN(C(=O)C2CC2)CC1 [Olaparib] (partner 8 µM) and stop.
Output line: 0.408

Input line: Specify relative viability for O=C(O)c1ccc(-c2c[nH]c3ncc(-c4ccccc4)cc23)cc1C1CCCC1 + CC(=O)Nc1cccc(-n2c(=O)n(C3CC3)c(=O)c3c(Nc4ccc(I)cc4F)n(C)c(=O)c(C)c32)c1 [Trametinib] (partner 0.02 µM) and stop.
Output line: 0.618

Input line: Specify relative viability for O=C(O)c1ccc(-c2c[nH]c3ncc(-c4ccccc4)cc23)cc1C1CCCC1 + Cc1nc(Nc2ncc(C(=O)Nc3c(C)cccc3Cl)s2)cc(N2CCN(CCO)CC2)n1 [Dasatinib] (partner 0.075 µM) and stop.
Output line: 0.603

Here is the next item to consider.
Input line: Specify relative viability for O=C(O)c1ccc(-c2c[nH]c3ncc(-c4ccccc4)cc23)cc1C1CCCC1 + N=C(N)NC(=N)NCCc1ccccc1 [Phenformin] (partner 250 µM) and stop.
Output line: 0.44
